target: Bile acid receptor (Homo sapiens) (UniProt Q96RI1); experiment: qHTS assay for small molecule agonists of farnesoid X receptor signaling (AID 588527); conditions: HEK293T FXR-UAS-bla, beta-lactamase ratio, 16 h; hits give high values;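 note: series mostly up to about 77 µM; 0% = vehicle basal and 100% = reference agonist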
Sequence (Q96RI1 whole entry, looked up): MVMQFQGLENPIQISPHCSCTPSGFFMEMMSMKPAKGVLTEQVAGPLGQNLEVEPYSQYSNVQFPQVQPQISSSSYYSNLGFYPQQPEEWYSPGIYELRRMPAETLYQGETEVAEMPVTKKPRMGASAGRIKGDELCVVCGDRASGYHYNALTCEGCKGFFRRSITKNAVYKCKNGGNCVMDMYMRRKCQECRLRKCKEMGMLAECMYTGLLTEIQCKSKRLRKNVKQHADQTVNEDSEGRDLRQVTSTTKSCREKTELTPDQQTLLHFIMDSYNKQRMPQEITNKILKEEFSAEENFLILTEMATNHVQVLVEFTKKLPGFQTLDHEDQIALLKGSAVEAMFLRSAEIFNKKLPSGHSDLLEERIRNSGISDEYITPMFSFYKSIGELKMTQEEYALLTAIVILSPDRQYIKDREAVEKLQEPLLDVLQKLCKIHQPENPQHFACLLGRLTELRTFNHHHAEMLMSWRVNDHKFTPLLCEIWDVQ
Records with an inconclusive call do not appear.
reported_property: activation (%)
Answers are plain numbers, in %.

Previously resolved entries follow.
{"smiles_data": "O=[N+]([O-])c1ccc(O)cc1C(F)(F)F", "result_value": -0.0736}
{"smiles_data": "Clc1ccc([C@@]2(Cn3cncn3)C[C@@H](Br)CO2)c(Cl)c1", "result_value": 3.84}
{"smiles_data": "CC1(C)C(=O)N(Br)C(=O)N1Br", "result_value": 1.27}

Give activation for each of the items listed below.
1. CC1=C(/C=C/C(C)=C/C=C/C(C)=C/C=O)C(C)(C)CCC1
2. O=C(O)[C@@H]1[C@H](C(=O)O)[C@@]2(Cl)C(Cl)=C(Cl)[C@]1(Cl)C2(Cl)Cl
3. CCCC/C=C\CCCCCCCCO
4. C(=C/c1ccccc1)/c1ccccc1

1: 23.6; 2: 7.2; 3: -5.44; 4: -2.54

Items follow; give activation for each.
1. c1ccc(Oc2ccccc2)cc1
2. CCc1ccc(C(c2ccc(CC)cc2)C(Cl)Cl)cc1
3. NC(=O)Cc1cccc2ccccc12

-0.867
3.04
0.544

For each entry beneath this line, provide reported activation.
1. Cc1[nH]c(=O)n(C(C)(C)C)c(=O)c1Cl
2. CN(C)P(=O)(N(C)C)N(C)C
3. CCSC(=O)N(CC)C1CCCCC1

[0.517, 3.22, -3.64]
